Parameter 'readout' = pKi; parameter 'system' = Mu-type opioid receptor (Homo sapiens).
Sequence (P35372 whole entry): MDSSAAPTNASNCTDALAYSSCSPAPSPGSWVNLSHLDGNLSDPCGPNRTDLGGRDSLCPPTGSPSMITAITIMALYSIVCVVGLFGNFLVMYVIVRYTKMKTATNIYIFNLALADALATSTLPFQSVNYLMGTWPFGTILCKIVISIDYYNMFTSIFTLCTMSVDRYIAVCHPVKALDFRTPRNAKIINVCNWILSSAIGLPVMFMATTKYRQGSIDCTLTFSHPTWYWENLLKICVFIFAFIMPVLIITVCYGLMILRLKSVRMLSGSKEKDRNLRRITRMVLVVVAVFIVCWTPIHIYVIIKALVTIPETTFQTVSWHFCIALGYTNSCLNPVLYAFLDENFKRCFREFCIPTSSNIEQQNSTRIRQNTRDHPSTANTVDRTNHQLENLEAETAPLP
API: returns pKi as number; meaning -log10 of concentration in mol/L.

Compound	pKi
CN(C)C1CCc2ccc(O)cc2C1(C)C (stereo not drawn)	6.94
CC1(C)c2cc(O)ccc2CCC1N(C/C=C/c1ccccc1)C/C=C/c1ccccc1 (stereo not drawn)	6.57
CN(C/C=C/c1ccccc1)C1CCc2ccc(O)cc2C1(C)C (stereo not drawn)	7.40
CCCN(C)C1CCc2ccc(O)cc2C1(C)C (stereo not drawn)	7.07
CN(CC1CC1)C1CCc2ccc(O)cc2C1(C)C (stereo not drawn)	6.98

Param item: CCCN(CCC)C1CCc2ccc(O)cc2C1(C)C (stereo not drawn) ; param system: Mu-type opioid receptor (Homo sapiens); output pKi: 6.32

Param item: C=CCN(CC=C)C1CCc2ccc(O)cc2C1(C)C (stereo not drawn) ; param system: Mu-type opioid receptor (Homo sapiens); output pKi: 6.98

Param item: CC1(C)c2cc(O)ccc2CCC1N(CC1CC1)CC1CC1 (stereo not drawn) ; param system: Mu-type opioid receptor (Homo sapiens); output pKi: 6.37
